Here's a roundup of Ki values tested on Protein kinase C theta type (Homo sapiens), taken from various published works.

COMPOUND | PROPERTY | OBSERVED_RESULT
C[C@H](Nc1ncc2nc(-c3c(Cl)cccc3Cl)n(CC3CCNC3)c2n1)c1ccccc1F (some centres unmarked) | Ki | < 1000 nM
c1cc(NCC2CCNCC2)nc(-c2n[nH]c3ncccc23)c1 | Ki | < 500 nM
c1cc(NCC2CCCN2)nc(-c2n[nH]c3ncccc23)c1 (centres unmarked) | Ki | > 700 nM
NC(=O)c1ccccc1Oc1ccc(C(F)(F)F)c(-c2n[nH]c3ncccc23)n1 | Ki | > 700 nM

Okay, next one:
Ask: Under Protein kinase C theta type (Homo sapiens): Ki value of "C#Cc1cnc2[nH]nc(-c3cccc(N4CCCNCC4)n3)c2c1" ?
Reply: < 500 nM
